Numbers sourced from ChEMBL document CHEMBL4739716.

Give pEC50 for every item shown.
Molecular target: UniProt Q6DWJ6
Assay: Agonist activity at human GPR139 expressed in CHO-K1 cells assessed as induction of beta-arrestin 2 recruitment incubated for 90 mins by PathHunter assay
Format: cell-based
pEC50: −log10 of the molar value.

Name the recorded pEC50 of the item `C[C@H](NC(=O)Cn1nc2cc(N3CCC[C@@H](O)C3)ccn2c1=O)c1ccc(OC(F)(F)F)cc1` in your answer. ≤ 7.00

Consider the compound `C[C@H](NC(=O)Cn1nc2ccc(F)cn2c1=O)c1ccc(C(F)(F)F)cc1` and give its recorded pEC50. > 9.00

For the compound `C[C@H](NC(=O)Cn1nc2cccnn2c1=O)c1ccc(Cl)cc1` , give its reported pEC50. ≤ 7.00

Tell us which pEC50 value is on record for `C[C@H](NC(=O)Cn1nc2ncc(Cl)cn2c1=O)c1ccc(Cl)c(F)c1` ≤ 7.00

Specify reported pEC50 for the compound shown: `C[C@H](NC(=O)Cn1nc2cccc(N3CCCCC3)n2c1=O)c1ccc(OC(F)(F)F)cc1` > 9.00

Supply recorded pEC50 for `C[C@H](NC(=O)Cn1nc2ncc(F)cn2c1=O)c1ccc(OC(F)(F)F)cc1` here. ≤ 7.00

Complete the entry with pEC50 for `CC[C@H](NC(=O)Cn1nc2cccnn2c1=O)c1ccc(Cl)c(F)c1` ≤ 7.00

Read off the recorded pEC50 for `C[C@H](NC(=O)Cn1nc2cc(OC3COC3)ccn2c1=O)c1ccc(OC(F)(F)F)cc1` ≤ 7.00

Item `Cc1cnn2c(=O)n(CC(=O)N[C@@H](C)c3ccc(OC(F)(F)F)cc3)nc2c1` : provide pEC50 ≤ 7.00

----------
Molecular target: Probable G-protein coupled receptor 139 (Homo sapiens)
Test: Agonist activity at human GPR139 expressed in CHO-K1 cells assessed as increase in calcium flux by calcium 5 dye based FLIPR assay relative to JNJ63533054
Assay type: functional, cell-based
Details: filed as agonist
observation.type: Emax

Specify measured Emax for `C[C@H](NC(=O)Cn1nc2c(I)ccnn2c1=O)c1ccc(OC(F)(F)F)cc1` . 50%

Entry `COc1ccn2c(=O)n(CC(=O)N[C@@H](C)c3ccc(Cl)cc3)nc2n1` needs its Emax filled in; supply it. > 80%

For the compound CC(C(=O)N[C@@H](C)c1ccc(Cl)c(F)c1)n1nc2ccccn2c1=O (stereo in doubt; form 1) , give its measured Emax value. > 80%

Fill in reported Emax for this entry: `COc1cccc2nn(CC(=O)N[C@@H](C)c3ccc(Cl)cc3)c(=O)n12` 50%

Dear colleague, please send me the reported Emax for `C[C@H](NC(=O)Cn1nc2cc(N3CCOCC3)cnn2c1=O)c1ccc(Cl)c(F)c1` when you can. > 80%

Identify measured Emax corresponding to `Cc1cc(Cl)ccc1[C@H](C)NC(=O)Cn1nc2ccccn2c1=O` > 80%

Please list Emax recorded for the compound `Cc1cc(C)n2c(=O)n(CC(=O)N[C@@H](C)c3ccc(Cl)c(F)c3)nc2n1` > 80%

Answer with the recorded Emax for the compound listed here: `C[C@H](NC(=O)Cn1nc2cc(OC3COC3)ccn2c1=O)c1ccc(OC(F)(F)F)cc1` > 80%

Provide measured Emax value, entry: `Cc1nccn2c(=O)n(CC(=O)N[C@@H](C)c3ccc(Cl)c(F)c3)nc12` > 80%

Provide measured Emax value, entry: `Cc1ccc([C@H](C)NC(=O)Cn2nc3cccnn3c2=O)cc1F` > 80%

For the compound `C[C@H](NC(=O)Cn1nc2cccnn2c1=O)c1ccc(OC(F)(F)F)c(F)c1` , give its measured Emax value. > 80%

Return value of Emax for input `COc1ccn2c(=O)n(CC(=O)N[C@@H](C)c3ccc(Cl)c(F)c3)nc2c1` , no commentary. > 80%

Report Emax for `COc1cccc2nn(CC(=O)N[C@@H](C)c3ccc(OC(F)(F)F)cc3)c(=O)n12` > 80%

Read the entry `C[C@H](NC(=O)Cn1nc2ncccn2c1=O)c1ccc(C2CC2)c(F)c1` and write its reported Emax. > 80%

Supply Emax value. Item: `Cc1ccn2c(=O)n(CC(=O)N[C@@H](C)c3ccc(OC(F)(F)F)cc3)nc2c1` > 80%

Fill in Emax for record `Cc1ccc([C@H](C)NC(=O)Cn2nc3ncccn3c2=O)cc1F` > 80%

Tell me measured Emax for `C[C@H](NC(=O)Cn1nc2ccccn2c1=O)c1ccc(OC(F)F)c(F)c1` please. > 80%

Fill in Emax for record `Cc1cnc2nn(CC(=O)N[C@@H](C)c3ccc(Cl)c(F)c3)c(=O)n2c1` > 80%

Query Emax for `C[C@H](NC(=O)Cn1nc2cccc(N3CC(O)C3)n2c1=O)c1ccc(OC(F)(F)F)cc1` 50%

Could you please provide reported Emax for `C[C@H](NC(=O)Cn1nc2ccccn2c1=O)c1ccc(Cl)c(F)c1` ? Thanks! > 80%

----------
Provide the reported Emax of each item.
Molecular target: Probable G-protein coupled receptor 139 (Rattus norvegicus)
Sequence (P0C0W8 whole entry): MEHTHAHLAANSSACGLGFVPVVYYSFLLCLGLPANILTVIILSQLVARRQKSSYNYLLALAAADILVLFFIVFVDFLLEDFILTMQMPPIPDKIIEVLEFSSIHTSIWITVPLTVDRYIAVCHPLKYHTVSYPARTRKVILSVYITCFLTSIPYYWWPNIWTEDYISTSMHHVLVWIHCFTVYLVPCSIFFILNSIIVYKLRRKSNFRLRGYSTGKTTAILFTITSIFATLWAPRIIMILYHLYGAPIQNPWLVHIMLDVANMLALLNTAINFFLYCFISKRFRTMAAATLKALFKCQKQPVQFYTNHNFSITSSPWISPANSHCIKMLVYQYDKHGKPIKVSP
Assay: Agonist activity at rat GPR139 expressed in CHO-K1 cells assessed as increase in calcium flux by calcium 5 dye based FLIPR assay relative to JNJ63533054
Type: cell-based
Conditions: filed as agonist

Determine from records and report Emax for `C[C@H](NC(=O)Cn1nc2c(N3CCC34CNC4)cccn2c1=O)c1ccc(Cl)c(F)c1` > 80%

Provide one value: measured Emax of `C[C@H](NC(=O)Cn1nc2ccc(F)cn2c1=O)c1ccc(Cl)cc1` 50%

Annotate the molecule `COc1ccn2c(=O)n(CC(=O)N[C@@H](C)c3ccc(C)cc3)nc2n1` with its measured Emax. 50%

Determine from records and report Emax for `Cc1ccc([C@H](C)NC(=O)Cn2nc3cccnn3c2=O)cc1Cl` 50%

Give a short answer stating reported Emax for CC(C(=O)N[C@@H](C)c1ccc(Cl)c(F)c1)n1nc2cccnn2c1=O (stereo in doubt; I-6-2) . > 80%

Provide only the value of recorded Emax for `COc1ccn2c(=O)n(CC(=O)N[C@@H](C)c3ccc(C)cc3)nc2c1` 50%

Return Emax (reported value) for this molecule: `C[C@H](NC(=O)Cn1nc2cccnn2c1=O)c1ccc(Cl)c(Cl)c1` 50%

Kindly indicate its recorded Emax. Item: `Cc1ccc([C@H](C)NC(=O)Cn2nc3ccccn3c2=O)cc1` 50%

Please give measured Emax of the following entry: `Cc1cnn2c(=O)n(CC(=O)N[C@@H](C)c3ccc(Cl)c(F)c3)nc2c1C` > 80%

Output Emax of `C[C@H](NC(=O)Cn1nc2cnccn2c1=O)c1ccc(Cl)c(F)c1` > 80%

----------
Molecular target: Probable G-protein coupled receptor 139 (Rattus norvegicus)
Assay: Agonist activity at rat GPR139 expressed in CHO-K1 cells assessed as increase in calcium flux by calcium 5 dye based FLIPR assay
Format: cell-based
Conditions: cho-k1
Would you kindly list pEC50 for each of these compounds?
Interpret pEC50 as the negative base-10 log of the concentration measured in mol/L.

Using the record for `C[C@H](NC(=O)Cn1nc2cccnn2c1=O)c1ccc(Cl)c(Cl)c1` , state its measured pEC50. 9.00

Please look at this compound and report its pEC50: `CNc1ccnn2c(=O)n(CC(=O)N[C@@H](C)c3ccc(OC(F)(F)F)cc3)nc12` 9.00

Look up and state reported pEC50 for CC1COCCN1c1cccc2nn(CC(=O)N[C@@H](C)c3ccc(Cl)c(F)c3)c(=O)n12 (some centres undefined) 9.00

// Input: `Cc1cnc2nn(CC(=O)N[C@@H](C)c3ccc(OC(F)(F)F)c(F)c3)c(=O)n2c1` . Output its pEC50 only. 8.00

Given CC(C(=O)N[C@@H](C)c1ccc(Cl)c(F)c1)n1nc2cccnn2c1=O (stereo in doubt; I-6-1) , respond with its pEC50. 8.00

Please look at this compound and report its pEC50: `Cc1cc(C)n2c(=O)n(CC(=O)N[C@@H](C)c3ccc(Cl)c(F)c3)nc2n1` 9.00

Please supply the value of reported pEC50 for the item `C[C@H](NC(=O)Cn1nc2c(N3CCNCC3)nccn2c1=O)c1ccc(Cl)c(F)c1` 8.00

Name the recorded pEC50 of the item `Cc1cc(Cl)ccc1[C@H](C)NC(=O)Cn1nc2cccnn2c1=O` in your answer. 9.00

Specify measured pEC50 for `C[C@H](NC(=O)Cn1nc2cccc(N3CCCCC3)n2c1=O)c1ccc(OC(F)(F)F)cc1` . 9.00

----------
Target: Probable G-protein coupled receptor 139 (Homo sapiens) (UniProt Q6DWJ6)
Sequence (whole entry): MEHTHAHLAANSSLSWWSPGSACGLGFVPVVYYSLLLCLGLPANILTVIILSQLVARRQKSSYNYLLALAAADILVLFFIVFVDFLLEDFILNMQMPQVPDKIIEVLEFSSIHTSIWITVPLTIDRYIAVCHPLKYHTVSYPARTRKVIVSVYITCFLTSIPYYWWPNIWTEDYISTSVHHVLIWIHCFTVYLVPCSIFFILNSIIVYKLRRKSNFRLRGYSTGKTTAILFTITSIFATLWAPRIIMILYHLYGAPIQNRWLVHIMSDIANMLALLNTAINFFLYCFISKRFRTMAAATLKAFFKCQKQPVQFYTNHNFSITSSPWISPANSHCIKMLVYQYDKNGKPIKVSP
Assay: Agonist activity at human GPR139 expressed in CHO-K1 cells assessed as increase in calcium flux by calcium 5 dye based FLIPR assay relative to JNJ63533054
Format: functional, cell-based
Settings: filed as agonist
Consider the following molecules; for each one, report its Emax.

// output Emax; input `C[C@H](NC(=O)Cn1nc2cccnn2c1=O)c1ccc(Cl)c(Cl)c1` ; system Probable G-protein coupled receptor 139 (Homo sapiens) (UniProt Q6DWJ6) > 80%

Fill in: Emax on Probable G-protein coupled receptor 139 (Homo sapiens) (UniProt Q6DWJ6), entry `COc1ccn2c(=O)n(CC(=O)N[C@@H](C)c3c(C)cc(C)cc3C)nc2c1` 50%

Report value: Emax, system: Probable G-protein coupled receptor 139 (Homo sapiens) (UniProt Q6DWJ6), molecule: `Cc1ccc([C@H](C)NC(=O)Cn2nc3cc(C)ccn3c2=O)cc1` > 80%

Recall the reported Emax of `Cc1ccc([C@H](C)NC(=O)Cn2nc3cc(C)nc(C)n3c2=O)cc1` on Probable G-protein coupled receptor 139 (Homo sapiens) (UniProt Q6DWJ6) and write it down. > 80%

Report its Emax with Probable G-protein coupled receptor 139 (Homo sapiens) (UniProt Q6DWJ6) as the test system: CC(C(=O)N[C@@H](C)c1ccc(Cl)c(F)c1)n1nc2cccnn2c1=O (stereo in doubt; I-6-2) > 80%

Write down the reported Emax (system: Probable G-protein coupled receptor 139 (Homo sapiens) (UniProt Q6DWJ6)) of `CC(C)[C@H](NC(=O)Cn1nc2cccnn2c1=O)c1ccc(Cl)c(F)c1` 50%

Send back Probable G-protein coupled receptor 139 (Homo sapiens) (UniProt Q6DWJ6) Emax of `C[C@H](NC(=O)Cn1nc2cc(Cl)ccn2c1=O)c1ccc(OC(F)(F)F)cc1` only. > 80%

State Emax (Probable G-protein coupled receptor 139 (Homo sapiens) (UniProt Q6DWJ6)) of `C[C@H](NC(=O)Cn1nc2c(N3CCC34CNC4)cccn2c1=O)c1ccc(Cl)c(F)c1` . > 80%

State the measured Emax (Probable G-protein coupled receptor 139 (Homo sapiens) (UniProt Q6DWJ6)) of `C[C@H](NC(=O)Cn1nc2cc(Cl)cnn2c1=O)c1ccc(Cl)c(F)c1` > 80%

State measured Emax of the molecule `C[C@@H](NC(=O)Cn1nc2ccccn2c1=O)c1ccc(OC(F)F)cc1` with Probable G-protein coupled receptor 139 (Homo sapiens) (UniProt Q6DWJ6). 50%

Determine reported Emax for `Cc1ccc([C@H](C)NC(=O)Cn2nc3cnccn3c2=O)cc1` ; test system: Probable G-protein coupled receptor 139 (Homo sapiens) (UniProt Q6DWJ6). > 80%

Give reported Emax for `Cc1cc([C@H](C)NC(=O)Cn2nc3cccnn3c2=O)ccc1Cl` (Probable G-protein coupled receptor 139 (Homo sapiens) (UniProt Q6DWJ6)) > 80%

# return Emax for `C[C@H](NC(=O)Cn1nc2ncccn2c1=O)c1ccc(Cl)c(Cl)c1` , test system: Probable G-protein coupled receptor 139 (Homo sapiens) (UniProt Q6DWJ6) > 80%

Under Probable G-protein coupled receptor 139 (Homo sapiens) (UniProt Q6DWJ6): report Emax of CC(NC(=O)Cn1nc2ccccn2c1=O)c1ncc(Cl)cc1F (stereo not given) . 50%

Find Emax for `Cc1nccn2c(=O)n(CC(=O)N[C@@H](C)c3ccc(OC(F)(F)F)cc3)nc12` on Probable G-protein coupled receptor 139 (Homo sapiens) (UniProt Q6DWJ6) and write it down. > 80%

Fill: Emax (Probable G-protein coupled receptor 139 (Homo sapiens) (UniProt Q6DWJ6)) for this molecule `Cc1ccc([C@H](C)NC(=O)Cn2nc3cccc(F)n3c2=O)cc1` > 80%

Fill: Emax (Probable G-protein coupled receptor 139 (Homo sapiens) (UniProt Q6DWJ6)) for this molecule CC(C(=O)N[C@@H](C)c1ccc(Cl)c(F)c1)n1nc2ncccn2c1=O (stereo in doubt; form 1) > 80%

For Probable G-protein coupled receptor 139 (Homo sapiens) (UniProt Q6DWJ6), give Emax of the listed molecule: Cc1ccc([C@H](C)NC(=O)C(C)n2nc3ccccn3c2=O)cc1 (stereo in doubt; form 3) > 80%

Consider the molecule O=C(Cn1nc2ccccn2c1=O)NC(c1ccc(Cl)cc1)C1CC1 (stereo not given) tested on Probable G-protein coupled receptor 139 (Homo sapiens) (UniProt Q6DWJ6); state its Emax. > 80%

State measured Emax of the molecule `COc1ccn2c(=O)n(CC(=O)N[C@@H](C)c3ccc(C)cc3)nc2n1` with Probable G-protein coupled receptor 139 (Homo sapiens) (UniProt Q6DWJ6). > 80%
